target: T1, Recombinant human PDGF-BB (human, UniProt P01127 82-190); experiment: SPR (ProteOn), biotinylated PDGF-BB on neutravidin chip, DARPin injected; Kd from on- and off-rates
T1 construct: For SPR it was chemically biotinylated on primary amines and captured on neutravidin; also called PDGF-BB (human); Reliatech 200-055
T1 sequence (P01127 82-190 limits assumed): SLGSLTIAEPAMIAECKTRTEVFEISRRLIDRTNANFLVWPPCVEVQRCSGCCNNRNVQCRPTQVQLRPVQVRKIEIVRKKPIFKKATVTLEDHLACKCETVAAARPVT
outcome-measure: pKd
Bear in mind: pKd is minus log10 of a mol/L concentration; give just that figure.

[
  {
    "binder": "DARPin #55 (designed binder) MRGSHHHHHHGSDLGKKLLEAARAGQDDEVRILLKAGADVNAKDLNGQTPLHLAADIGHLEIVEVLLKAGADVNAKDYAGSTPLRLAAWAGHLEIVEVLLKAGADVNAKDYFGYTPLHLAAYFGHLEIVEVLLKAGADVNAQDKFGKTAFDISIDNGNEDLAEILQKLN",
    "pKd": 10.26
  },
  {
    "binder": "DARPin #37 (designed binder) MRGSHHHHHHGSDLGWKLLEAARTGQDDEVRILLAAGADVNAKDITGTTPLHYAAAWGHMEIVEVLLKTGADVNAQDLYGATPADLAALLGHEDIAEVLQKLN",
    "pKd": 9.82
  },
  {
    "binder": "DARPin #42 (designed binder) MRGSHHHHHHGSDLGYKLLFAAYVGQDDEVRILLAAGADVNAKDRHGRTPLHLAAWEGHLEIVEVLLKAGADVNAKDDEGTTPLHLLAAWEGHLEIVEVLLKAGADVNAQDVYGATPADLAAYIGHEDIAEVLQKLN",
    "pKd": 10.09
  },
  {
    "binder": "DARPin #57 (designed binder) MRGSHHHHHHGSDLGKKLLEAARAGQDDEVRILLKAGADVNAKDLNGQTPLHLAADIGHLEIVEVLLKAGADVNAKDYAGSTPLRLAAWAGHLEIVEVLLKAGADVNAKDYFGYTPLHLAAYFGHLEIVEVLLKAGADVNAQDKSGKTPADLAADAGHEDIAEVLQKLN",
    "pKd": 9.91
  },
  {
    "binder": "DARPin #56 (designed binder) MRGSHHHHHHGSDLDKKLLEAARAGQDDEVRILLKAGADVNAKDLNGQTPLHLAADIGHLEIVEVLLKAGADVNAKDYAGSTPLRLAAWAGHLEIVEVLLKAGADVNAKDYFGYTPLHLAAYFGHLEIVEVLLKAGADVNAQDKFGKTPADIAADNGHEDIAEVLQKLN",
    "pKd": 9.82
  }
]

Ask | Give pKd for DARPin #32 (designed binder) MRGSHHHHHHGSDLGHKLLQAAKHGQDDEVRILLAAGADVNAKDDEGTTPLHYAAVWGHLEIVEVLLKAGADVNAQDAYGATPADLAAFLGHEDIAEVLQKLN
Reply | 10.20

Ask | Give pKd for DARPin #38 (designed binder) MRGSHHHHHHGSDLGDKLLWAAKHGQDDEVRILLAAGADVNAKDDEGSTPLHYAAVWGHLETVEVLLKAGADVNAQDIWGATPADLAALLGHEDIAEVLQKLN
Reply | 10.03

Ask | Give pKd for DARPin #50 (designed binder) MRGSHHHHHHGSDLGKKLLEAARAGQDDEVRELLKAGADVNAKDLNGQTPLHLAADIGHLEIVEVLLKAGADVNAKDYAGSTPLRLAAWAGHLEIVEVLLKAGADVNAKDYFGYTPLHLAAYFGHLEIVEVLLKAGADVNAQDKFGKTAFDISIDNGNEDLAEILQKLN
Reply | 9.94

Ask | Give pKd for DARPin #29 (designed binder) MRGSHHHHHHGSDLGKKLLEAARAGQDDEVRILLKAGADVNAKDEEGTTPLHYAAVWGHLEIVEVLLKAGADVNAQDIYGATPADLAALVGHEDIAEVLQKLN
Reply | 9.98

All figures here come from patent US20140005125A1.
